test.system: human apelin receptor (Homo sapiens)
Construct: expressed in transfected cells
assay: Determination of agonism on the human apelin receptor by a calcium fluorescence assay (FLIPR)
Assay type: cell-based
test.context: HEK293 cells stably transfected with human apelin receptor and Giaq protein, Fluo-4 calcium fluorescence, read-out: EC50 (APJ agonism)
pEC50: −log10 of the molar value.
Quick rule for you: pEC50 at 7 or higher means TRUE, lower means FALSE.

The following compounds have reported results that may help.
**Query** Threshold query (pEC50 >= 7) on CCC(CC)n1c(Cc2cscn2)nc2cc(C(=O)N[C@H](C(=O)O)[C@@H](C)CC)ccc21
**Result** FALSE

**Query** Threshold query (pEC50 >= 7) on CCCC(CC(=O)O)NC(=O)c1ccc2c(c1)nc(Cc1cccs1)n2C(CC)CC (centres unmarked)
**Result** FALSE

**Query** Threshold query (pEC50 >= 7) on CCC(CC)n1c(Cc2cccs2)nc2cc(C(=O)N[C@@H](CC(C)C)C(=O)NCCC3CCCN3C)ccc21 (some centres unmarked)
**Result** FALSE

**Query** Threshold query (pEC50 >= 7) on CC(C)C[C@@H](CC(=O)O)NC(=O)c1ccc2c(c1)nc(Cc1cccs1)n2C1CCCCC1C (single isomer, unassigned) [Example 436]
**Result** TRUE

**Query** Threshold query (pEC50 >= 7) on CCC(CC)NC(=O)[C@H](CC(C)C)NC(=O)c1ccc2c(c1)nc(Cc1cccs1)n2C(CC)CC
**Result** FALSE

**Query** Threshold query (pEC50 >= 7) on CCCC[C@H](NC(=O)c1ccc2c(c1)nc(Cc1cccs1)n2C1CCCCC1C)C(=O)O (single isomer, unassigned) [Example 420]
**Result** TRUE

Others:
**Query** Threshold query (pEC50 >= 7) on CC1CCCCC1n1c(Cc2cccs2)nc2cc(C(=O)N[C@@H](CC3CCCCC3)C(=O)O)ccc21 (single isomer, unassigned) [Example 426]
**Result** FALSE

**Query** Threshold query (pEC50 >= 7) on CCC(CC)n1c(Cc2cccs2)nc2cc(C(=O)N[C@@H](CC(C)C)C(=O)N3CCN(c4cccc(C(F)(F)F)c4)CC3)ccc21
**Result** FALSE

**Query** Threshold query (pEC50 >= 7) on CCC(CC)n1c(Cc2cccs2)nc2cc(C(=O)N[C@H](CSc3nnc[nH]3)CC(C)C)ccc21
**Result** FALSE

**Query** Threshold query (pEC50 >= 7) on CCC(CC)n1c(Cc2cccs2)nc2cc(C(=O)N[C@@H](CC(C)C)C(=O)NCCCCN3CCCC3)ccc21
**Result** FALSE

**Query** Threshold query (pEC50 >= 7) on CCC(CC)n1c(Cc2cccs2)nc2cc(C(=O)N[C@@H](CC(C)C)C(=O)NCC3CCCN4CCCCC34)ccc21 (some centres unmarked)
**Result** FALSE

**Query** Threshold query (pEC50 >= 7) on CCC(CC)n1c(Cc2cccs2)nc2cc(C(=O)NC(CC3CCC(C)(C)CC3)C(=O)O)ccc21 (single isomer, unassigned) [Example 444]
**Result** FALSE

* * *

Each entry below lists one item and its recorded pEC50 value.
test.system: human apelin receptor (Homo sapiens, UniProt P35414)
Construct: expressed in transfected cells
Sequence (P35414 whole entry): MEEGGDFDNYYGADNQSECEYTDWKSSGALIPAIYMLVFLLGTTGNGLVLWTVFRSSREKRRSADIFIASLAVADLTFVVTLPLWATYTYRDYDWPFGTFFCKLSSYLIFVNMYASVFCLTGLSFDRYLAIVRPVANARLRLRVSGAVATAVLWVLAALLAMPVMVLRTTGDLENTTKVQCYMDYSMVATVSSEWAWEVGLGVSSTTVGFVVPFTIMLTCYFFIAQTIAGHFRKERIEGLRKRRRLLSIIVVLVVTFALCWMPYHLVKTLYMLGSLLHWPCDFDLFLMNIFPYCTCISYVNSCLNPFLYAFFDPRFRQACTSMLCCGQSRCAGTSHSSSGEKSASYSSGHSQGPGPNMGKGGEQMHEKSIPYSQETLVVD
assay: Determination of agonism on the human apelin receptor by a calcium fluorescence assay (FLIPR)
Assay type: cell-based
test.context: HEK293 cells stably transfected with human apelin receptor and Giaq protein, Fluo-4 calcium fluorescence, read-out: EC50 (APJ agonism)
// pEC50: -log10(molar conc.)

Recorded pEC50, per entry:
**Query** Return reported pEC50; argument: CC(C)C[C@H](NC(=O)c1ccc2c(c1)nc(Cc1ccco1)n2C1CCCCC1C)C(=O)O (single isomer, unassigned) [Example 417]
**Result** 6.15

**Query** Return reported pEC50; argument: CCC(CC)n1c(Cc2cccs2)nc2cc(C(=O)N[C@@H](CC(C)C)C(=O)N[C@@H](C)COC)ccc21
**Result** 5.54

**Query** Return reported pEC50; argument: CCCC[C@H](NC(=O)c1ccc2c(c1)nc(Cc1cccs1)n2C1CCCCC1C)C(=O)O (single isomer, unassigned) [Example 422]
**Result** 5.73

Others:
**Query** Return reported pEC50; argument: CCC(CC)n1c(Cc2cccs2)nc2cc(C(=O)N[C@@H](CC(C)C)C(=O)NC3CCN(Cc4cccnc4)CC3)ccc21
**Result** 6.17

**Query** Return reported pEC50; argument: CCC(CC)n1c(Cc2cccs2)nc2cc(C(=O)N[C@@H](CC3CCCCC3)C(N)=O)ccc21
**Result** 5.17

**Query** Return reported pEC50; argument: CCC(CC)n1c(Cc2ccco2)nc2cc(C(=O)NC(CC(=O)O)c3ccccc3)ccc21 (stereo not drawn)
**Result** 5.96

**Query** Return reported pEC50; argument: CCC(CC)n1c(Cc2cccs2)nc2cc(C(=O)N[C@@H](CC(C)C)C(=O)NCCCN3CCCC3)ccc21
**Result** 6.59

**Query** Return reported pEC50; argument: CCC(CC)n1c(Cc2cccs2)nc2cc(C(=O)N[C@@H](CC(C)C)C(=O)NCCCN3CC(C)CC(C)C3)ccc21 (stereo partly drawn)
**Result** 6.16

**Query** Return reported pEC50; argument: CCC(CC)n1c(Cc2cccs2)nc2cc(C(=O)N[C@@H](CC(C)C)C(=O)N[C@H]3C[C@H]4CC[C@@H](C3)N4C)ccc21
**Result** 6.98

Recorded values, source patent US9156796B2.
